All figures here come from paper doi:10.1101/2023.09.24.559210.

- experimental_target: JAM-A C-terminal 10mer peptide, N-terminally biotinylated
- assay_name: BLI
observable: Kd (µM)
The reply should contain only the number, in µM.

Param item = human afadin PDZ domain (domain or fragment) IITVTLKKQNGMGLSIVAAKGAGQDKLGIYVKSVVKGGAADVDGRLAAGDQLLSVDGRSLVGLSQERAAELMTRTSSVVTLEVAKQG ; retrieve measured Kd.
5
